- Tested on: MOLT-4
- protocol_notes: NCI tumour cell line growth inhibition, 48 h
Calls of active or inactive are those of the source. No stated cut-off is given here; in the data, active = GI50 up to about 1.1 µM and inactive = higher.
reported_property: GI50

| compound | test_result |
| --- | --- |
| COC1OC2COC(c3ccccc3)OC2C(OC(=S)c2ccccc2)C1O (stereo not given) | > 100 µM (inactive) |
| COc1ccccc1-c1nc(-c2ccccc2O)n[nH]1 | > 100 µM (inactive) |

# map each compound to its GI50
1. CC(=O)O[C@H]1[C@@H]2[C@@H]3[C@@H](C[C@H]1C)[C@@H](C)CO[C@@]1(C)CC/C=C(/C)C[C@@H]2O[C@@H]31
2. COc1ccc(OC)c(/C=N/N=C2\C(=O)Nc3c(Cl)cc(Cl)cc32)c1
3. NCCCN1CCN(CCCNc2ccc3nnn4c5ccccc5c(=O)c2c34)CC1

-- reply
1. > 100 µM (inactive)
2. 23.8 µM (inactive)
3. 9.51 µM (inactive)
